tested on: rat; assay: Diuretic, natriuretic and kaliuretic action, Experimental Design 1 (anesthetized rats, continuous NaCl infusion, i.v. bolus); assay type: in vivo; settings: dose 1 mg/kg rat i.v. bolus, collection period 90 min, control 29.5
code Z = not defined here
Recorded K^+ by entry
Provide the reading as a plain figure in µmol/kg.

Prompt: Entry Z-Arg-Ile-Trp-Arg-Ile-OMe ({code Z}-RIWRI-OMe; reading uncertain; also: printed as Z-Arg-Ile-Trp-Arg-Ile-OMe) : reported K^+ = ?
Completion: 46.2

More entries:
Prompt: Entry H-RIWRI-OH [H-Arg-Ile-Trp-Arg-Ile-OH] : reported K^+ = ?
Completion: 57.5

Prompt: // same read-out, input: H-RIFRI-OH [H-Arg-Ile-Phe-Arg-Ile-OH]
Completion: 68.3

Prompt: // same read-out, input: H-RILRI-OH [H-Arg-Ile-Leu-Arg-Ile-OH]
Completion: 50.1

Prompt: // same read-out, input: H-RPVKV-OH [H-Arg-Pro-Val-Lys-Val-OH]
Completion: 28.2
